Each recorded value in this set is attributed to ChEMBL document CHEMBL1944512.

# TEST_DETAILS: Thermodynamic solubility of the compound at pH 4 after 24 hrs of post-equilibriation by shake-flask method
# Assay type: physicochemical
# MEASUREMENT_CONTEXT: buffer, read-out: Therm_solubility
PARAMETER_MEASURED: solubility thermodynamic at 24 h (µg/mL)

[I] COc1ccc(CCC[N+](C)(C)CCNC(=O)c2nc(Cl)c(N)nc2N)cc1.[Br-]
[II] COc1ccc(CCC[N+](C)(CCCc2ccc(OC)cc2)CCNC(=O)c2nc(Cl)c(N)nc2N)cc1.[Br-]
Exam item: Param pair: I , II . Output: the one whose solubility thermodynamic at 24 h is numerically greater. Answer = label.
Marked response: I
(I: 4900 µg/mL, II: 500 µg/mL)

---

# TEST_DETAILS: Thermodynamic solubility of the compound at pH 1 after 24 hrs of post-equilibriation by shake-flask method
# Type: physicochemical
# MEASUREMENT_CONTEXT: buffer, read-out: Therm_solubility
PARAMETER_MEASURED: solubility thermodynamic at 24 h (µg/mL)

[a] COc1ccc(CCC[N+](C)(C)CCNC(=O)c2nc(Cl)c(N)nc2N)cc1.[Br-]
[b] COc1ccc(CCC[N+](C)(CCCc2ccc(OC)cc2)CCNC(=O)c2nc(Cl)c(N)nc2N)cc1.[Br-]
Exam item: Param pair: a , b . Output: the one whose solubility thermodynamic at 24 h is numerically greater. Answer = label.
Marked response: a
(a: 4800 µg/mL, b: 600 µg/mL)

---

# TEST_DETAILS: Inhibition of human ENaC in HBE cells by short-circuit current technique
# Assay type: cell-based
PARAMETER_MEASURED: IC50 (nM)

Reference set (3 entries):
C[N+](C)(CCCCNC(=O)Cc1ccc(Cl)cc1)CCNC(=O)c1nc(Cl)c(N)nc1N	720
Cc1ccc(C(=O)NCCCC[N+](C)(C)CCNC(=O)c2nc(Cl)c(N)nc2N)cc1	880
Cc1ccc(CCC(=O)NCCCC[N+](C)(C)CCNC(=O)c2nc(Cl)c(N)nc2N)cc1	590

[P] C[N+](C)(CCCCCNS(=O)(=O)c1ccc(Cl)cc1)CCNC(=O)c1nc(Cl)c(N)nc1N
[Q] C[N+](C)(CCNC(=O)c1ccc(Cl)cc1)CCNC(=O)c1nc(Cl)c(N)nc1N
Exam item: Lowest IC50? choose P or Q Answer = label.
Marked response: P
(P: 960 nM, Q: 1660 nM)

[I] C[N+](C)(CCCCNC(=O)CCc1ccc(Cl)cc1)CCNC(=O)c1nc(Cl)c(N)nc1N
[II] COc1ccc(CCC[N+](C)(C)CCNC(=O)c2nc(Cl)c(N)nc2N)cc1.[Br-]
[III] CN(C)CCNC(=O)c1nc(Cl)c(N)nc1N
[IV] CN(C)CCCNC(=O)c1nc(Cl)c(N)nc1N
Exam item: Task for the reader: rank each entry by its IC50, from the minimum upward. Arrange the labels as the request states and list them.
Marked response: I, II, III, IV

---

# TEST_DETAILS: Permeability from basal to apical side of human Caco2 cells
# Assay type: ADME, cell-based
# MEASUREMENT_CONTEXT: Caco-2, read-out: permeability
PARAMETER_MEASURED: Papp B→A (×10⁻⁶ cm/s)

[1] COc1ccc(CCC[N+](C)(C)CCNC(=O)c2nc(Cl)c(N)nc2N)cc1.[Br-]
[2] C[N+](C)(CCCCNC(=O)Cc1ccc(OCc2ccccc2)cc1)CCNC(=O)c1nc(Cl)c(N)nc1N.[Br-]
Exam item: Lowest Papp B→A? choose 1 or 2 Answer = label.
Marked response: 1
(1: 1.67 ×10⁻⁶ cm/s, 2: 2.55 ×10⁻⁶ cm/s)

---

# SYSTEM: Voltage-gated inwardly rectifying potassium channel KCNH2 (Homo sapiens)
# Sequence (Q12809 whole entry): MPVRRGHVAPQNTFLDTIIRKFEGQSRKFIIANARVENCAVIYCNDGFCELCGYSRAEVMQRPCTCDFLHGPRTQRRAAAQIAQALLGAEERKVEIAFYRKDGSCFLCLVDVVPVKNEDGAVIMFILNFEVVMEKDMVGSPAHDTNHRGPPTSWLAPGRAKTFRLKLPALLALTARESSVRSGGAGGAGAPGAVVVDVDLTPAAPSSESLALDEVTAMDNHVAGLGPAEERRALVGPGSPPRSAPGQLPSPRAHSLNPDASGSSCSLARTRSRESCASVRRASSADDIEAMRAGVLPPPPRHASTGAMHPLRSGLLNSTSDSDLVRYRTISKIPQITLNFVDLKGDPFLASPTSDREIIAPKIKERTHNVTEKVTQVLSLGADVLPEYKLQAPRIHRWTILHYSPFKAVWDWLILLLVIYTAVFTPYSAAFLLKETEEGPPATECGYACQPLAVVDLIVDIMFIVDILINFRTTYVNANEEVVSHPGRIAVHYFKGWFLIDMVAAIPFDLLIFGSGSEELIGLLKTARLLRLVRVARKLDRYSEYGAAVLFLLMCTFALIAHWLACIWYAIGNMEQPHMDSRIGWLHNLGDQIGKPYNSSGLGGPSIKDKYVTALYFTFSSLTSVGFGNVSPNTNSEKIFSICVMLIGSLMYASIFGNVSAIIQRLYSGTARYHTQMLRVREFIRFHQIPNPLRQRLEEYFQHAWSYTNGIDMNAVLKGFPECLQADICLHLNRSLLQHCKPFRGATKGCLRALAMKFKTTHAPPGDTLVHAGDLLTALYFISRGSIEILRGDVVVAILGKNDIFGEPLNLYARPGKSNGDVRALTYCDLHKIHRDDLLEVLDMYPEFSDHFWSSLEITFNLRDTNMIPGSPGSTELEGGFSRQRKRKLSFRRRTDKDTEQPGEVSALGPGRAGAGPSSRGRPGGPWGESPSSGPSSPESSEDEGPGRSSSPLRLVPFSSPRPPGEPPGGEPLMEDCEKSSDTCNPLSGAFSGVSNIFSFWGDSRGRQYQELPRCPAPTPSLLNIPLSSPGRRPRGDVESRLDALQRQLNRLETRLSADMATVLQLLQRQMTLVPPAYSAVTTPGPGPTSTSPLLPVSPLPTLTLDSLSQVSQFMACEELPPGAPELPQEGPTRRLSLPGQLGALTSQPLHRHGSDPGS
# TEST_DETAILS: Binding affinity to human ERG channel
PARAMETER_MEASURED: pIC50
Please keep in mind that pIC50 is minus log10 of the molar concentration; only the number is needed.

Exam item: Please list pIC50 recorded for the compound C[N+](C)(CCCCNC(=O)Cc1ccc(OCc2ccccc2)cc1)CCNC(=O)c1nc(Cl)c(N)nc1N.[Br-]
Marked response: 6.48

---

# TEST_DETAILS: Inhibition of human ENaC in HBE cells by short-circuit current technique
# Assay type: cell-based
pIC50: −log10 of the molar value.
PARAMETER_MEASURED: pIC50

C[N+](C)(CCCCNC(=O)Cc1ccc(OCc2ccccc2)cc1)CCNC(=O)c1nc(Cl)c(N)nc1N.[Br-]	7.22
CNCCNC(=O)c1nc(Cl)c(N)nc1N	5.34

[I] NCCNC(=O)c1nc(Cl)c(N)nc1N
[II] C[N+](C)(CCCNC(=O)c1ccc(Cl)cc1)CCNC(=O)c1nc(Cl)c(N)nc1N
Exam item: Param pair: I , II . Output: the one whose pIC50 is numerically greater. Answer = label.
Marked response: II

---

# TEST_DETAILS: Thermodynamic solubility of the compound at pH 9 after 24 hrs of post-equilibriation by shake-flask method
# Type: physicochemical
# MEASUREMENT_CONTEXT: buffer, read-out: Therm_solubility
PARAMETER_MEASURED: solubility thermodynamic at 24 h (µg/mL)

[A] COc1ccc(CCC[N+](C)(CCCc2ccc(OC)cc2)CCNC(=O)c2nc(Cl)c(N)nc2N)cc1.[Br-]
[B] COc1ccc(CCC[N+](C)(C)CCNC(=O)c2nc(Cl)c(N)nc2N)cc1.[Br-]
Exam item: Lowest solubility thermodynamic at 24 h? choose A or B Answer = label.
Marked response: A
(A: 1000 µg/mL, B: 4700 µg/mL)

---

# TEST_DETAILS: Inhibition of human ENaC in HBE cells by short-circuit current technique
# Assay type: cell-based
PARAMETER_MEASURED: IC50 (nM)

COc1ccc(CCC[N+](C)(CCCc2ccc(OC)cc2)CCNC(=O)c2nc(Cl)c(N)nc2N)cc1.[Br-]	13
Cc1ccc(CC(=O)NCCCC[N+](C)(C)CCNC(=O)c2nc(Cl)c(N)nc2N)cc1	750
C[N+](C)(CCCCNC(=O)c1ccc(Cl)cc1)CCNC(=O)c1nc(Cl)c(N)nc1N	510
C[N+](C)(CCCCNS(=O)(=O)c1ccc(Cl)cc1)CCNC(=O)c1nc(Cl)c(N)nc1N	250
C[N+](C)(CCCNS(=O)(=O)c1ccc(Cl)cc1)CCNC(=O)c1nc(Cl)c(N)nc1N	290

[1] C[N+](C)(CCCCNC(=O)CCc1ccc(OCc2ccccc2)cc1)CCNC(=O)c1nc(Cl)c(N)nc1N
[2] C[N+](C)(CCCCNC(=O)CCc1ccccc1)CCNC(=O)c1nc(Cl)c(N)nc1N
Exam item: Param pair: 1 , 2 . Output: the one whose IC50 is numerically greater. Answer = label.
Marked response: 2

---

# TEST_DETAILS: Inhibition of human ENaC in HBE cells by short-circuit current technique
# Assay type: cell-based
pIC50: −log10 of the molar value.
PARAMETER_MEASURED: pIC50

[I] N/C(=N\C(=O)c1nc(Cl)c(N)nc1N)NCc1ccccc1 [BENZAMIL]
[II] C[N+](C)(CCCCNC(=O)Cc1ccccc1)CCNC(=O)c1nc(Cl)c(N)nc1N
Exam item: Lowest pIC50? choose I or II Answer = label.
Marked response: II
(II: 6.02, I: 7.70)

---

# TEST_DETAILS: Inhibition of human ENaC in HBE cells by short-circuit current technique
# Type: cell-based
PARAMETER_MEASURED: IC50 (nM)

[a] C[N+](C)(CCCCNC(=O)c1ccccc1)CCNC(=O)c1nc(Cl)c(N)nc1N
[b] C[N+](C)(C)CCNC(=O)c1nc(Cl)c(N)nc1N
[c] COc1ccc(CCC[N+](CCCc2ccc(OC)cc2)(CCCc2ccc(OC)cc2)CCNC(=O)c2nc(Cl)c(N)nc2N)cc1
Exam item: List the 3 entries from lowest IC50 to highest IC50 value. Arrange the labels as the request states and list them.
Marked response: c, a, b
(c: 37 nM, a: 1230 nM, b: 5810 nM)
